All figures here come from paper PMC12040169.

- procedure_summary: in vitro
- test_parameters: human, hela cells, % viability
Listed below: viability at 28.5 h, 10 µM values for each entry.

compound	viability at 28.5 h, 10 µM [%]
Cc1cc(C)cc(Nc2cc(C)n3c(=O)[nH]nc3n2)c1 [CBK288380]	91.8
CC1CCc2c(sc(NC(=O)c3ccn(C)n3)c2C#N)C1 (stereo not drawn) [CBK304682]	89.8
COc1ccc([C@@]23CC[C@@H](NC(=O)c4ccc(F)c(F)c4)C[C@@H]2CN(C)C3)cc1OC [CBK083504T]	90.2
COc1ccc(-c2cc(C3CC3)nc(SCC(=O)O)c2C#N)cc1 [CBK262690]	91.3
O=C(CCNc1n[nH]c(=O)[nH]c1=O)N/N=C/c1ccc(C(F)(F)F)cc1 [CBK263518]	87.7
CCc1cc(Br)ccc1S(=O)(=O)NCCOc1ccccc1 [CBK044882]	88.4
NNC(=O)CCn1c2ccc(Cl)cc2c2cc(Cl)ccc21 [CBK261413]	88.8
COc1ccc([C@@]23CC[C@@H](NC(=O)Nc4ccc(F)c(F)c4)C[C@@H]2N(C)CC3)cc1O [CBK051630]	88.3
O=S(=O)(Nc1nnc(C(F)(F)F)s1)c1ccc(-c2ccccn2)s1 [CBK062016]	91.9
COc1ccccc1CCCN1CCC(C(=O)NC(=O)Nc2ccccc2)CC1 [CBK034865]	89.7
CCOCCCNC(=O)C1CCN(c2cccc(F)c2C#N)CC1 [CBK306341]	91.9
CC(=O)Oc1ccc(C(=O)NCc2ccc3c(c2)OCO3)cc1 [CBK264372]	91.2

====

Listed below: viability at 28.5 h, 0.0123333 µM values for each entry.
- procedure_summary: in vitro
- Parameters: Viability of infected HeLa host cells, resazurin conversion, bulk resorufin fluorescence relative to DMSO
- test_parameters: human, hela cells; bulk resorufin, mean of 3
quantity_name: viability at 28.5 h, 0.0123333 µM (%)

molecule	unit_of_measure	assay_value
Cc1ccc2[nH]c3c(c2c1)CCOC31CCN(Cc2ccccc2-c2ccccc2)CC1 [c22e]	%	87.6
COc1c(Br)cc2c(cc(C)n2-c2ccccc2)c1OCC(O)CNC(C)C (stereo not shown)	%	90.9
O=C(CSc1nnc(-c2cccnc2)o1)c1ccccc1 [c35e]	%	91.4
CN(C(=O)c1ccc(Cl)c(Cl)c1)[C@H]1CCC[C@H]1N1CCCC1 [c12e]	%	89

====

- procedure_summary: in vitro
- test_parameters: human, hela cells, % viability
Listed below: viability at 28.5 h, 10 µM values for each entry.

molecule	viability at 28.5 h, 10 µM (%)
O=C(O)c1csc(-c2ccc(Cl)cc2Cl)n1	90
O=C(Oc1ccc(/C=N/c2ccc(O)c(-c3nc4ccccc4s3)c2)cc1)c1ccccc1Cl	89.9
COc1cccc(COc2cncc(Cl)n2)c1OC	86.3
C=Cn1cc(CN2C3CCC2CC(O)(c2ccc(F)cc2)C3)c(C)n1 (stereo not drawn)	80.6
CC(C)(C)n1cc2c(n1)[C@H]1CN(C(=O)CN3CCCC3=O)C[C@H]1CC2	89.2
CC(C)C(=O)Nc1ccc(Oc2ccc(C(=O)O)c(C(=O)O)c2)cc1	86.4
CSc1ccc(C(NC(=O)OC(C)(C)C)C(=O)O)cc1 (stereo not drawn)	80.4
COc1cc(C2NC(C(=O)O)Cc3c2[nH]c2ccccc32)cc(OC)c1OC (stereo not drawn)	101
Cc1cc(OCCCCNCCO)ccc1Cl	111
COc1ccc(NC(=O)c2c(C)[nH]c(=O)[nH]c2=S)cc1OC	90.4
CN1CCC[C@H]1C(=O)N1CCCC2(CCN(Cc3ccccc3)C2)C1 (stereo partly drawn)	90.7
CCn1cc(CN(C)C(=S)Nc2cccc(C(C)=O)c2)c(C)n1	106
CN(C)c1nc2c(ncn2C2OC(CO)C(O)C2O)c(=O)[nH]1 (stereo not drawn)	96.3
CC1CCCC(C)N1C(=O)CN1C2CCC1CC(O)(c1ccco1)C2 (stereo not drawn)	85.4
O=C(O)CCC(=O)N1CCN(S(=O)(=O)c2ccc(F)cc2)CC1	93.2
CC1CCCN(Cc2nc3c(c(=O)n(C)c(=O)n3C)n2CC(N)=O)C1 (stereo not drawn)	82.3
c1ccc(CCN2CCN(Cc3cccnc3)CC2)cc1	103
FCCOc1cncc(Cl)n1	115
CCN(CC)C1CCN(C(=O)Nc2cc(NC(C)=O)ccc2F)C1 (stereo not drawn)	88.7
CC1(C)CC(=O)c2cc(C(N)=O)c(=O)n(-c3ccc(Cl)cc3)c2C1	88.8
COc1cccc(CSc2ccc(CN3CCOCC3)cc2F)c1	87.1
O=C(O)CCCC(=O)Nc1ccc(O)cc1	90.9
CCOc1ccccc1CCNS(=O)(=O)c1ccc(Cl)c(Cl)c1	95.5
Cc1ccccc1Nc1nc(N)nc(CN2CCOCC2)n1	87.5
COc1ccc(OC)c(C(O)CN2CCCC(C(=O)N3CCCCCC3)C2)c1 (stereo not drawn)	87.5
Cn1ncc2c1CCCN(C(=O)Cc1ccc3c(c1)CCCO3)C2	87.8
COc1ccc(OCC2CCN(C(=O)[C@@H]3C[C@@H]4C=C[C@H]3C4)CC2)cc1	93.5
O=C(c1cc2ncc(CCO)cn2n1)N1CCC(c2ccccc2Cl)C1 (stereo not drawn)	105
Nc1cc2ccccc2nc1C1CCN(C(=O)C2CC=CCC2)CC1 (stereo not drawn)	88.9
Cc1nc(NCCN2CCCC(CO)C2)nc2c1CCCC2 (stereo not drawn)	82
CN1CCC(Cc2nc(-c3ccc(Cl)s3)n(CCO)n2)CC1	100
Cn1ccnc1C1CCN(C(=O)NCc2cccc(F)c2)CC1	91.3
CO[C@@H]1CO[C@H]2[C@@H]1OC[C@@H]2NC(=O)Nc1ccc(C(C)=O)cc1	106
